Hey, just so you know, these numbers are from patent US6506766B1.

Target: human progesterone receptor-A [PRA] isoform (Homo sapiens)
Construct: host or cells: insect SF21 cells (baculovirus)
Sequence (P06401 165-933): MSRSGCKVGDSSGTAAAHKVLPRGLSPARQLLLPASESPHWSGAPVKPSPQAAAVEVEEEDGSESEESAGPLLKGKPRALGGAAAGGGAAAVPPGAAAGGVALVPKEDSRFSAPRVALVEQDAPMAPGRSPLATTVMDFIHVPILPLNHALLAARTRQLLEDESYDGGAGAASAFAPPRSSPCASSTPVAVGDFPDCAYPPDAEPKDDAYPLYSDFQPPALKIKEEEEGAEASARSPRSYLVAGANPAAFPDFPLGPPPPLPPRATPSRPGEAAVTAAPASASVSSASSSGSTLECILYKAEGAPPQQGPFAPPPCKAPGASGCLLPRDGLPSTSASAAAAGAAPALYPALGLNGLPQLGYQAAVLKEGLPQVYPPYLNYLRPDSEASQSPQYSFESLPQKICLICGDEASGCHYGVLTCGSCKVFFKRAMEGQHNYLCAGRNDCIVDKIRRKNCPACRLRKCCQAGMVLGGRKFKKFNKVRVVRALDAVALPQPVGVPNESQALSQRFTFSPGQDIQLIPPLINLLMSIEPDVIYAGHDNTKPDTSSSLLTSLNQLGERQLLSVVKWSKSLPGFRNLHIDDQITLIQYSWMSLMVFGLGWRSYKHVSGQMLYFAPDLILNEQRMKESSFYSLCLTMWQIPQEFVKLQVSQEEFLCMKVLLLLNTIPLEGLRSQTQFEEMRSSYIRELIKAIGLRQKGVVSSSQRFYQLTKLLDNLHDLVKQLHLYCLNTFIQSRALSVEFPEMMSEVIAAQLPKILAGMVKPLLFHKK
Test: Radioligand binding with human progesterone receptor cytosol ([3H]-progesterone competition)
Details: PRA cytosol expressed in insect SF21 cells, [3H]Prog ~0.8 nM, 4° C. overnight; Ki by Cheng-Prusoff, KL ~4.5 nM; read-out: Ki (nM) PR
quantity-kind: Ki

{"compound": "COc1cccc2c1-c1ccc3c(c1C(CC(=O)N(C)OC)O2)C(C)=CC(C)(C)N3 (centres unmarked)", "reported": "≥ 10000 nM"}
{"compound": "CCOC(=O)c1cccc(C2Oc3cccc(OC)c3-c3ccc4c(c32)C(C)=CC(C)(C)N4)c1 (centres unmarked)", "reported": "> 10000 nM"}
{"compound": "COc1cccc2c1-c1ccc3c(c1C(C1C=CCCC1(C)C)O2)C(C)=CC(C)(C)N3 (centres unmarked)", "reported": "≥ 10000 nM"}

// each compound listed below needs its Ki
1. COc1cccc2c1-c1ccc3c(c1C(c1ccccc1)O2)C(C)=CC(C)(C)N3 (centres unmarked) [Example 1]
2. COc1cccc2c1-c1ccc3c(c1C(C/C=C/CO)O2)C(C)=CC(C)(C)N3 (centres unmarked)
3. COc1ccc(Br)c2c1-c1ccc3c(c1C(C1C=CCCC1)O2)C(C)=CC(C)(C)N3 (centres unmarked)
4. COc1cccc2c1-c1ccc3c(c1C(c1cccc(CCO)c1)O2)C(C)=CC(C)(C)N3 (centres unmarked)
5. COc1cccc2c1-c1ccc3c(c1C(c1ccc(OC(C)=O)cc1)O2)C(C)=CC(C)(C)N3 (centres unmarked)

-- reply
["≥ 10000 nM", "≥ 10000 nM", "4840 nM", "≥ 10000 nM", "≥ 10000 nM"]

###

Please go through the items and note down their Ki.
Biological target: human glucocorticoid receptor-α [GRX] isoform (Homo sapiens, UniProt P04150)
Construct: host or cells: insect SF21 cells (baculovirus)
Sequence (P04150 whole entry, canonical isoform): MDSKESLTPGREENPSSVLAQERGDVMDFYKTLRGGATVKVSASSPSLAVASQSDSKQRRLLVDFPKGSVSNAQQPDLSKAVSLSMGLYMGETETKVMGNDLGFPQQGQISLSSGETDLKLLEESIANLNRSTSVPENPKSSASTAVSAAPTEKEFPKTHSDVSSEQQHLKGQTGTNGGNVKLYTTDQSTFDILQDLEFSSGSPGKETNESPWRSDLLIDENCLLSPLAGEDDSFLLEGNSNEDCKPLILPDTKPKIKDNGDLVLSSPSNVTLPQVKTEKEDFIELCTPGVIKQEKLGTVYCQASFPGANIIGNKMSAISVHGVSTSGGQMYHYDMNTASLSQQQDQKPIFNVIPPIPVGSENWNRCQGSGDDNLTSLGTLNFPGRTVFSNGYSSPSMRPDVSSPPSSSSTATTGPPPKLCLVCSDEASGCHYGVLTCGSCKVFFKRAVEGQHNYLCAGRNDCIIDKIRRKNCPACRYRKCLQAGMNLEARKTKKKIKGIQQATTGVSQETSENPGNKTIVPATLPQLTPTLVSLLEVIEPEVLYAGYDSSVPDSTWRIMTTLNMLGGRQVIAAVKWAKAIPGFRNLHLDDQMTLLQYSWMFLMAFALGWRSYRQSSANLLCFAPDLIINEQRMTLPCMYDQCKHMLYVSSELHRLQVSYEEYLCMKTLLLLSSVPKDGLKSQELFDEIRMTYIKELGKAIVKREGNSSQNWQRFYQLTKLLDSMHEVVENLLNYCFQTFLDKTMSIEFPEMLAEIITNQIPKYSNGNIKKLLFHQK
Test: Radioligand binding with human glucocorticoid receptor cytosol ([3H]-dexamethasone competition)
Details: GRX cytosol expressed in insect SF21 cells, [3H]-Dex ~0.9 nM, 4° C. overnight; Ki by Cheng-Prusoff, KL ~[…]; read-out: Ki (nM) GR
Numbers only, in nM.

Previously resolved entries follow.
{"compound": "C=CCC1Oc2ccc(Br)c(OC)c2-c2ccc3c(c21)C(C)=CC(C)(C)N3 (stereo not shown)", "Ki (nM)": 5.3}
{"compound": "COc1c(O)ccc2c1-c1ccc3c(c1C(c1nccs1)O2)C(C)=CC(C)(C)N3 (stereo not shown)", "Ki (nM)": 112}
{"compound": "C=CCC1Oc2cccc(NC)c2-c2ccc3c(c21)C(C)=CC(C)(C)N3 (stereo not shown)", "Ki (nM)": 4.8}

Let us examine a further case.
-- ask State the recorded Ki for this entry: "COc1c(O)ccc2c1-c1ccc3c(c1C(=Cc1cccc(F)c1)O2)C(C)=CC(C)(C)N3"
-- reply 9
